assay.system: BACE-1 enzyme (Homo sapiens)
Construct: purchased R & D Systems 931AS
Sequence (P56817 46-457 limits assumed): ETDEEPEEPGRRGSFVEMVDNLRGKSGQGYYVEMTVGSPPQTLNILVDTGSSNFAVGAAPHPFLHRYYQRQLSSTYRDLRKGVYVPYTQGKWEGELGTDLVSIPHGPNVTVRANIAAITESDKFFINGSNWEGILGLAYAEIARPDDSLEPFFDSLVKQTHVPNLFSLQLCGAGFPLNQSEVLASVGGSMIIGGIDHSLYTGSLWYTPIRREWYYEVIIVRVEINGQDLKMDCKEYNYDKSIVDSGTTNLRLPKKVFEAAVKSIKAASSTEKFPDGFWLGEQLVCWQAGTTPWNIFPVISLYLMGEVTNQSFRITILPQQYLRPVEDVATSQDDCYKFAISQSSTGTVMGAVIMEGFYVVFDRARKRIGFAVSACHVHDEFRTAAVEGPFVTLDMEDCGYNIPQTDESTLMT
assay.method.text: BACE Fluorescence Resonance Energy Transfer (FRET) Assay
Format: biochemical
condition.description: pH 4-4.5, 30 min pre-incubation, about 1.5 hours reaction
readout: IC50 (µM)

compound	IC50, µM
O=C(Nc1nc2cc(-c3cc(F)cc(Cl)c3)ccc2[nH]1)c1cn2cc(F)cc(N3CC[C@H](O)C3)c2n1 [Example 152]	1.53

A = COCCNCc1ccn2cc(C(=O)Nc3nc4cc(-c5cccc(C(F)(F)F)c5)ccc4[nH]3)nc2c1 [Example 208]
B = COc1ccc(-c2ccc3[nH]c(NC(=O)c4cn5c(N6CCN(C)CC6)cccc5n4)nc3c2)cc1C(F)(F)F [Example 124]
C = Cc1cccc2nc(C(=O)Nc3nc4cc(-c5ccc(O)c(F)c5)ccc4[nH]3)cn12 [Example 103]
D = Cc1cccc2nc(C(=O)Nc3nc4cc(-c5cccc(N6CCOCC6)c5)ccc4[nH]3)cn12 [Example 44]
Challenge: Put the compounds in ascending order of IC50. Would you mind listing the labels in the order requested?
Response given: A, B, C, D

a = CO[C@@H]1CCN(c2cc(F)cn3cc(C(=O)Nc4nc5cc(-c6cc(F)cc(Cl)c6)ccc5[nH]4)nc23)C1 [Example 160]
b = CN1CCN(Cc2cccc3nc(C(=O)Nc4nc5cc(-c6cccc(C(F)(F)F)c6)ccc5[nH]4)cn23)CC1 [Example 10]
c = Cc1cccc2nc(C(=O)Nc3nc4cc(OCc5ccccc5)ccc4[nH]3)cn12 [Example 12]
Challenge: Order the records so the highest IC50 appears first and the lowest last. Would you mind listing the labels in the order requested?
Response given: a, b, c
(a: 0.75 µM, b: 0.3 µM, c: 0.2 µM)

a = O=C(Nc1nc2cc(-c3cccc(C(F)(F)F)c3)ccc2[nH]1)c1cn2cccc(-c3ccccc3)c2n1 [Example 216]
b = O=C(Nc1nc2cc(OCc3ccc(Cl)c(Cl)c3)ccc2[nH]1)c1cn2cc(Cl)ccc2n1 [Example 20]
c = O=C(Nc1nc2cc(-c3cccc(C(F)(F)F)c3)ccc2[nH]1)c1cn2ccc(CNCC(O)c3ccccc3)cc2n1 (stereo not shown) [Example 206]
d = Cc1cccn2cc(C(=O)Nc3nc4cc(N5CCC(c6ccccc6)CC5)ccc4[nH]3)nc12 [Example 37]
Challenge: Put the compounds in ascending order of IC50. Would you mind listing the labels in the order requested?
Response given: b, c, a, d
(b: 0.25 µM, c: 0.44 µM, a: 0.65 µM, d: 1.8 µM)

1 = O=C(Nc1nc2cc(-c3cccc(C(F)(F)F)c3)ccc2[nH]1)c1cn2cc(CN3CCCC3)ccc2n1 [Example 179]
2 = CN1CCN(c2cc(F)cn3cc(C(=O)Nc4nc5cc(-c6cc(F)cc(Cl)c6)ccc5[nH]4)nc23)CC1 [Example 128]
3 = CCOc1ccc(-c2ccc3[nH]c(NC(=O)c4cn5c(C)cccc5n4)nc3c2)cc1F [Example 80]
Challenge: Order the records so the highest IC50 appears first and the lowest last. Would you mind listing the labels in the order requested?
Response given: 3, 1, 2

A = COc1cccn2cc(C(=O)Nc3nc4cc(-c5cc(F)cc(Cl)c5)ccc4[nH]3)nc12 [Example 151]
B = Cc1cccc2nc(C(=O)Nc3nc4cc(-c5cccc(C(F)(F)F)c5O)ccc4[nH]3)cn12 [Example 109]
Challenge: Response body: label of entry with the larger IC50; valid values A , B . Refer to your chosen item by its label in the answer.
Response given: B
(B: 0.87 µM, A: 0.31 µM)
